- measurementNotes: chemical genetic growth profiling, strain panel (AID 1159580);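 note: tested at 20 µM; growth read once vehicle control cultures reached saturation at 30 °C; 1 = growth at the plate median or of vehicle wells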
- conditionDetails: S. cerevisiae deletion strains, growth OD, locus YJL166W, strain qcr8, stronger effect = lower value
About 2,000 (36%) of roughly 5,500 compounds were called active. Another 18% or so got no clear call; they are omitted. The list shows a part of the results.
attributeMeasured: normalized growth
API note: the answer field is a bare number with no unit suffix.

Recorded results for 5 compounds are shown here.
{"compound": "COc1cc2c(cc1O)CCNC2C (configuration not stated)", "normalized growth": 0.987}
{"compound": "O=c1c(O)c(-c2ccc(O)c(O)c2)oc2cc(O)ccc12", "normalized growth": 0.986}
{"compound": "CCCCCCCCCCCCCCCCCCOCC(O)CO (configuration not stated)", "normalized growth": 0.99}
{"compound": "CN(C)C(=N)N=C(N)N", "normalized growth": 0.982}
{"compound": "CCOc1ccc(C(=O)c2ccc(O)c(O)c2O)cc1", "normalized growth": 0.933}

Return reported normalized growth; argument: CC[C@@H](CO)NC(=O)[C@@H]1C=C2c3cccc4[nH]cc(c34)C[C@H]2N(C)C1
0.947

Which normalized growth reading was recorded for the compound COc1ccc(C(=O)c2ccc(O)cc2)c(O)c1O ?
0.972

What value of normalized growth has been reported for the following compound? CCOc1ccc(C(=O)c2ccc(OC)c(O)c2O)cc1
0.959

Field request: normalized growth | item: NCCNCCNCCN
0.994

----------
- measurementNotes: chemical genetic growth profiling, strain panel (AID 1159580)
- conditionDetails: S. cerevisiae deletion strains, growth OD, locus YNL298W, strain CLA4
In all, about 5,500 compounds went through this assay and about 2,000 (36%) were called active. Another 18% or so got no clear call; they are omitted. Cut-off read from the data, not from the text of the source: active = normalized growth mostly below about 0.91 (no sharp cut-off); inconclusive = no clear call, values can overlap the other calls; inactive = mostly above about 0.92. The list shows a part of the results.
Choose the fitting class; nothing outside 1 (yes) (active), 0 (no) (inactive) is accepted.

These solved cases illustrate the format of a correct answer.
{"compound": "CC(=O)CC1CCCCN1 (stereo unspecified)", "assignedCategory": "0 (no)"}
{"compound": "CO[C@@]1(NC(=O)Cc2cccs2)C(=O)N2C(C(=O)O)=C(COC(N)=O)CS[C@@H]21", "assignedCategory": "0 (no)"}
{"compound": "COc1cnc(NS(=O)(=O)c2ccc(N)cc2)nc1", "assignedCategory": "0 (no)"}

What outcome does the record of this test show for OC(c1cc(C(F)(F)F)nc2c(C(F)(F)F)cccc12)C1CCCCN1 (stereo unspecified) ?
0 (no)

Dear all, I need the recorded test outcome for COC1(C)CCC2OC2(C)CCC2C1CC2(C)C (stereo unspecified) , thank you.
0 (no)

Check the results log: what was the call for Cc1c(NC(=O)c2cccnc2)c(=O)n(-c2ccccc2)n1C ?
0 (no)

Hi, do you know how COc1ccc2c(c1)[C@]13CCCC[C@H]1[C@H](C2)N(C)CC3 came out in this test?
0 (no)

Which outcome did this test record for the compound CCOc1ccc(NC(C)=O)cc1 ?
0 (no)

Each compound tested received a call. Report the one for CCOc1ccc(C(=O)c2ccc(O)c(O)c2O)cc1 .
0 (no)

In this assay, the call recorded for CC(=O)c1cc2c(cc1O)OC(C)(C)C=C2 was what?
0 (no)

----------
- measurementNotes: chemical genetic growth profiling, strain panel (AID 1159580)
- conditionDetails: S. cerevisiae deletion strains, growth OD, locus YGR252W, strain gcn5, stronger effect = lower value
About 2,000 (36%) of roughly 5,500 compounds were called active. Not shown: some 18% with an inconclusive outcome. Some of the results follow.
attributeMeasured: normalized growth
When you answer, write just the number.

Solved entries (count: 6):
{"compound": "CCCCCCCCCCCCCCCCCCOCC(O)CO (centres undefined)", "attributeMeasured": "normalized growth", "measuredResult": 0.969}
{"compound": "CC1=NN(c2ccccc2)C(=O)C1", "attributeMeasured": "normalized growth", "measuredResult": 0.867}
{"compound": "Cc1onc(-c2ccccc2)c1C(=O)NC1C(=O)N2[C@@H]1SC(C)(C)[C@@H]2C(=O)O (some centres undefined)", "attributeMeasured": "normalized growth", "measuredResult": 0.939}
{"compound": "CC1=CC(=O)C2=C(C)CC(O)C3C(C)C(=O)OC3C12 (centres undefined)", "attributeMeasured": "normalized growth", "measuredResult": 0.969}
{"compound": "CC(=O)[O][Hg][c]1ccccc1", "attributeMeasured": "normalized growth", "measuredResult": 0.166}
{"compound": "CN1CCN(CCCN2c3ccccc3Sc3ccc(C(F)(F)F)cc32)CC1", "attributeMeasured": "normalized growth", "measuredResult": 0.138}

Can you look up the measured normalized growth of O=C(OC[C@H]1O[C@H](OC(=O)c2cc(O)c(O)c(OC(=O)c3cc(O)c(O)c(O)c3)c2)[C@H](OC(=O)c2cc(O)c(O)c(OC(=O)c3cc(O)c(O)c(O)c3)c2)[C@@H](OC(=O)c2cc(O)c(O)c(OC(=O)c3cc(O)c(O)c(O)c3)c2)[C@@H]1OC(=O)c1cc(O)c(O)c(OC(=O)c2cc(O)c(O)c(O)c2)c1)c1cc(O)c(O)c(OC(=O)c2cc(O)c(O)c(O)c2)c1 for me?
0.231

What does the record list as normalized growth for O=C1c2ccccc2C(=O)C1c1ccccc1 ?
0.998

Which value of normalized growth has been reported for COc1ccc(C2C(=O)c3ccccc3C2=O)cc1 in the records?
0.956

----------
- measurementNotes: chemical genetic growth profiling, strain panel (AID 1159580);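 note: tested at 20 µM; growth read once vehicle control cultures reached saturation at 30 °C; 1 = growth at the plate median or of vehicle wells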
- conditionDetails: S. cerevisiae deletion strains, growth OD, locus YGL253W, strain hxk2, stronger effect = lower value
The campaign covered roughly 5,500 compounds. About 2,000 (36%) were called active. Another 18% or so got no clear call; they are omitted. This is one part of the list.
normalized growth values for the compounds below.
I only need the number, thanks.

Guide cases for normalized growth, answers given:
{"compound": "COC(=O)[C@]1(C)CC[C@]2(C)CC[C@]3(C)C4=CC=C5C(=CC(=O)C(O)=C5C)[C@]4(C)CC[C@@]3(C)[C@@H]2C1", "normalized growth": 0.584}
{"compound": "NC(=O)N1c2ccccc2C=Cc2ccccc21", "normalized growth": 1.01}
{"compound": "COc1cc2c(cc1O)CCNC2C (centres undefined)", "normalized growth": 1}
{"compound": "CC(=O)N[C@@H](Cc1c[nH]c2ccccc12)C(=O)O", "normalized growth": 0.979}

Given O=C(O)c1cc(=O)c2c(Cl)cc(Cl)cc2[nH]1 , state its recorded normalized growth.
1.02

Look up normalized growth: CCN(CC)CCNC(=O)c1cc(Cl)c(N)cc1OC
0.981

Please give the measured normalized growth for this compound: CC(=O)O[C@H]1CC[C@]2(C)C3CC(=O)[C@]4(C)C(C(C)=O)=CCC4C3CC[C@H]2C1 (some centres undefined)
0.982

I would be grateful if you could share the reported normalized growth for CC(=O)Oc1cc2c(c(C)c1OC(C)=O)CC1OC13C2(C)CCC1(C)C2CC(C)(C(=O)O)CCC2(C)CCC13C (centres undefined) .
1.03

Quick check: normalized growth of OCc1c[nH]c2ccccc12 ?
0.98

What value of normalized growth has been reported for the following compound? c1ccc2c(Cc3c[nH]c4ccccc34)c[nH]c2c1
0.348

Any idea what normalized growth was measured for CCC1C(=O)OCC1Cc1cncn1C (centres undefined) ?
1.01

What does the data say about its normalized growth? Entry: CC[C@@H](CO)NC(=O)[C@@H]1C=C2c3cccc4[nH]cc(c34)C[C@H]2N(C)C1
1.01

----------
- measurementNotes: chemical genetic growth profiling, strain panel (AID 1159580);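 note: tested at 20 µM; growth read once vehicle control cultures reached saturation at 30 °C; 1 = growth at the plate median or of vehicle wells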
- conditionDetails: S. cerevisiae deletion strains, growth OD, locus YPL078C, strain atp4, stronger effect = lower value
The whole screen tested about 5,500 compounds, of which about 2,000 (36%) were called active. About 18% were inconclusive and are not listed. This is one part of the list.
Note to self: use TRUE only for normalized growth readings below 1; a reading exactly at 1 still gets FALSE.

{"smilesRepresentation": "CCC1(CC)C(=O)C=CNC1=O", "assignedCategory": "TRUE"}
{"smilesRepresentation": "CCOc1ccc(C(=O)c2ccc(O)c(O)c2O)cc1", "assignedCategory": "TRUE"}
{"smilesRepresentation": "NCCc1cc(O)c(O)cc1O", "assignedCategory": "TRUE"}
{"smilesRepresentation": "CO[C@@]1(NC(=O)Cc2cccs2)C(=O)N2C(C(=O)O)=C(COC(N)=O)CS[C@@H]21", "assignedCategory": "TRUE"}

Say whether its normalized growth is strictly beneath 1. Entry: Cc1cc(C(C)(C)C)cc(C)c1CC1=NCCN1
FALSE

Find out if reported normalized growth for CCOc1ccc(C(=O)c2ccc(OC)c(O)c2O)cc1 is less than 1
TRUE

----------
- measurementNotes: chemical genetic growth profiling, strain panel (AID 1159580);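 note: tested at 20 µM; growth read once vehicle control cultures reached saturation at 30 °C; 1 = growth at the plate median or of vehicle wells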
- conditionDetails: S. cerevisiae deletion strains, growth OD, locus YDL040C, strain nat1, stronger effect = lower value
Out of some 5,500 compounds screened, about 2,000 (36%) were called active. Another 18% or so got no clear call; they are omitted. The list shows a part of the results.
attributeMeasured: normalized growth
The response must contain the number and no unit.

Look over these answered cases.
{"compound": "COc1cc(/C=C/C(=O)N2CCC=CC2=O)cc(OC)c1OC", "measuredResult": 0.996}
{"compound": "COc1ccc(C(=O)c2ccc(O)cc2)c(O)c1O", "measuredResult": 0.972}
{"compound": "COc1c2ccoc2cc2oc(C)cc(=O)c12", "measuredResult": 1}
{"compound": "CCOc1ccc(NC(C)=O)cc1", "measuredResult": 1.01}

Data request, read-out normalized growth, for Cc1ccc(N(CC2=NCCN2)c2cccc(O)c2)cc1
1.01

# normalized growth lookup, item CCOc1ccc(C(=O)c2ccc(OC)c(O)c2O)cc1
1.01

Given Cc1cc(C(C)(C)C)cc(C)c1CC1=NCCN1 , state its recorded normalized growth.
1

Item Cc1cc(C(C)(C)C)c(O)c(C)c1CC1=NCCN1 has what recorded normalized growth?
1
